// pIC50 lookup, one value per entry
# Assay system: UniProt:Q8IIL0
# Sequence (Q8IIL0 243-492): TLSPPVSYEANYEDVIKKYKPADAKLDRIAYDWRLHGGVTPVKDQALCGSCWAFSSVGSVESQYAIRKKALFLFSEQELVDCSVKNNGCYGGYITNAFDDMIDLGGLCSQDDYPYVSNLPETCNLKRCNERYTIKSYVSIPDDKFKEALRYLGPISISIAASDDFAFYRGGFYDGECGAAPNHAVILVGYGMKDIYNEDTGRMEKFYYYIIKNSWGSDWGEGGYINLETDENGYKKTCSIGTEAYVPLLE
# Protocol details: falcipain-3 enzymatic assay (fluorogenic substrate H-D-VLR-AFC, endpoint)
# Condition notes: parasitic recombinant enzyme, pH 5.5, quenched after 60 minutes
pIC50: −log10 of the molar value. Structures can show the parent of a compound that is named as a salt.

CN(C)C1CCN(C(=O)n2cnc3c(N(NC(=O)OC(C)(C)C)C4CCCC4)nc(C#N)nc32)CC1 [Example 48, trifluoroacetate] :: 6.82 to 7.82

Short answer on UniProt:Q8IIL0 for CN1CCN(C(=O)C2CCN(Cc3ccc(C(=O)NN(c4nc(C#N)nc5c4ncn5C)C4CCCC4)cc3)CC2)CC1 [Example 6, trifluoroacetate] , pIC50: 6.60 to 6.82

Short answer on UniProt:Q8IIL0 for CN(C)CCn1cnc2c(N(NC(=O)c3cccc(N4CCN(C)CC4)c3)C3CCCC3)nc(C#N)nc21 [Example 41, bis(trifluoroacetate)] , pIC50: 6.82 to 7.82

Short answer on UniProt:Q8IIL0 for Cn1cnc2c(N(NC(=O)c3ccc(CN4CC(N5CCCC5)C4)cc3)C3CCCC3)nc(C#N)nc21 [Example 7] , pIC50: 6.40 to 6.60

Short answer on UniProt:Q8IIL0 for CC(C)(C)OC(=O)NN(CC1CCCC1)c1nc(C#N)nc2c1ncn2CCN1C(=O)c2ccccc2C1=O [Example 21] , pIC50: 6.40 to 6.60

Short answer on UniProt:Q8IIL0 for CN1CCN(C(=O)n2cnc3c(N(NC(=O)OC(C)(C)C)C4CCCCC4)nc(C#N)nc32)CC1 [Example 35, trifluoroacetate] , pIC50: 8.60 to 9.00

Short answer on UniProt:Q8IIL0 for CN1CCN(c2cccc(C(=O)NN(c3nc(C#N)nc4c3ncn4C)C3CCCCC3)c2)CC1 [Example 36, trifluoroacetate] , pIC50: 6.82 to 7.82

Short answer on UniProt:Q8IIL0 for CN1CCN(Cc2ccc(C(=O)NN(CC3CCCC3)c3nc(C#N)nc4c3ncn4C)cc2)CC1 [Example 23, trifluoroacetate] , pIC50: 6.82 to 7.82

Short answer on UniProt:Q8IIL0 for Cn1cnc2c(N(NC(=O)c3ccc(CN4CC(N5CCCC5)C4)cc3)C3CCCCC3)nc(C#N)nc21 [Example 11] , pIC50: 6.82 to 7.82

Short answer on UniProt:Q8IIL0 for CN(C)CCn1cnc2c(N(NC(=O)c3cccc(-c4ccc(CN5CCN(C)CC5)cc4)n3)C3CCCCC3)nc(C#N)nc21 [Example 45, trifluoroacetate] , pIC50: 6.82 to 7.82

Short answer on UniProt:Q8IIL0 for CN(C)CCCn1cnc2c(N(NC(=O)c3cccc(N4CCN(C)CC4)c3)C3CCCC3)nc(C#N)nc21 [Example 37] , pIC50: 6.60 to 6.82

Short answer on UniProt:Q8IIL0 for CN(C)CCn1cnc2c(N(NC(=O)OC(C)(C)C)C3CCCC3)nc(C#N)nc21 [Example 39, trifluoroacetate] , pIC50: 6.82 to 7.82

Short answer on UniProt:Q8IIL0 for CN1CCC(N2CCN(Cc3ccc(C(=O)NN(CC4CCCC4)c4nc(C#N)nc5c4ncn5C)cc3)CC2)CC1 [Example 18] , pIC50: 6.82 to 7.82

Short answer on UniProt:Q8IIL0 for CN1CCN(Cc2ccc(C(=O)NN(c3nc(C#N)nc4c3ncn4C)C3CCCC3)cc2)CC1 [Example 47, trifluoroacetate] , pIC50: 6.40 to 6.60
